Reported half-life is given for each of the following compounds.
Experiment: Pharmacokinetic study of YCHD components and phase II metabolites in normal rats (UHPLC-MS/MS, sulfatase enzymolysis)
Type: in vivo, rat
Conditions: Sprague Dawley, rat; Control group (normal rats), single oral YCHD 12 g/kg, plasma; read-out: t1/2z
Enter your answer as a number in h; do not include the unit.

compound	half-life [h]
COC(=O)C1=CO[C@@H](O[C@@H]2O[C@H](CO[C@@H]3O[C@H](CO)[C@@H](O)[C@H](O)[C@H]3O)[C@@H](O)[C@H](O)[C@H]2O)[C@@H]2C(CO)=CC[C@H]12 [genipin-1-β-D-gentiobiodide, Genipin-1-β-D-gentiobiodide]	1.93

We now examine a further compound.
Documented half-life of O=C(O)C1=CO[C@@H](O[C@@H]2O[C@H](CO)[C@@H](O)[C@H](O)[C@H]2O)[C@@H]2C(CO)=CC[C@H]12 [Geniposidic acid] : 3.23

====

Test: Pharmacokinetic study of YCHD components and phase II metabolites in ANIT-induced cholestatic rats (UHPLC-MS/MS, sulfatase enzymolysis)
Format: in vivo, rat
Conditions: single oral YCHD 12 g/kg
Reported AUC(0-∞) reduced by, cholestatic model rats compared with normal rats is given for each of the following compounds.
Enter your answer as a number in %; do not include the unit.

Examples with their reported AUC(0-∞) reduced by, cholestatic model rats compared with normal rats follow.
compound	reading unit	value measured
O=C(O)/C=C/c1ccc(O)c(O)c1 [Caffeic acid]	%	48.9
COC(=O)C1=CO[C@@H](O[C@@H]2O[C@H](CO[C@@H]3O[C@H](CO)[C@@H](O)[C@H](O)[C@H]3O)[C@@H](O)[C@H](O)[C@H]2O)[C@@H]2C(CO)=CC[C@H]12 [genipin-1-β-D-gentiobiodide, Genipin-1-β-D-gentiobiodide]	%	17.7
CC(=O)c1ccc(O)cc1 [4-hydroxyacetophenone, 4-Hydroxyacetophenone]	%	41.2

We now examine a further compound.
Documented AUC(0-∞) reduced by, cholestatic model rats compared with normal rats of O=C(O)c1cc(O)c2c(c1)C(=O)c1cccc(O)c1C2=O [Rhein] : 80.9

====

Reported Tmax is given for each of the following molecules.
Assay: Pharmacokinetic study of YCHD components and phase II metabolites in normal rats (UHPLC-MS/MS, sulfatase enzymolysis)
Assay type: in vivo, rat
Settings: rat, plasma, po, 12 g/kg, Control group (normal rats), single oral YCHD 12 g/kg, plasma
Respond with a number, then the unit of measure.

molecule	value measured
COC(=O)C1=CO[C@@H](O[C@@H]2O[C@H](CO[C@@H]3O[C@H](CO)[C@@H](O)[C@H](O)[C@H]3O)[C@@H](O)[C@H](O)[C@H]2O)[C@@H]2C(CO)=CC[C@H]12 [genipin-1-β-D-gentiobiodide, Genipin-1-β-D-gentiobiodide]	21 min
CC(=O)c1ccc(O)cc1 [4-hydroxyacetophenone, 4-Hydroxyacetophenone]	15 min
O=C(O)c1cc(O)c2c(c1)C(=O)c1cccc(O)c1C2=O [Rhein]	15 min

We now examine a further molecule.
Documented Tmax of O=C(/C=C/c1ccc(O)c(O)c1)O[C@@H]1C[C@](O)(C(=O)O)C[C@@H](O)[C@H]1O [Chlorogenic acid] : 15 min

====

Assay: Pharmacokinetic study of YCHD components and phase II metabolites in ANIT-induced cholestatic rats (UHPLC-MS/MS, sulfatase enzymolysis)
Type: in vivo, rat
Settings: rat, plasma, po, 12 g/kg; read-out: Vz/F
Description: To explore the pharmacokinetic properties of YCHD following intragastric administration in rats, a rapid and sensitive method involving the use of UHPLC-MS/MS (Agilent 6460 series, Agilent Technologies, Santa Clara, CA, United States) was developed and validated for the simultaneous quantification of 10 active components of rat plasma. […]
Reported Vd/F is given for each of the following compounds.
Enter your answer as a number in L/kg; do not include the unit.

compound	measure	value measured
O=C(/C=C/c1ccc(O)c(O)c1)O[C@@H]1C[C@](O)(C(=O)O)C[C@@H](O)[C@H]1O [Chlorogenic acid]	Vd/F	2110
O=C(O)c1cc(O)c2c(c1)C(=O)c1cccc(O)c1C2=O [Rhein]	Vd/F	41.4
CC(=O)c1ccc(O)cc1 [4-hydroxyacetophenone, 4-Hydroxyacetophenone]	Vd/F	429

We now examine a further compound.
Documented Vd/F of O=C(O)/C=C/c1ccc(O)c(O)c1 [Caffeic acid] : 132

====

Reported CL/F is given for each of the following molecules.
Test: Pharmacokinetic study of YCHD components and phase II metabolites in ANIT-induced cholestatic rats (UHPLC-MS/MS, sulfatase enzymolysis)
Assay type: in vivo, rat
Conditions: rat, plasma, po, 12 g/kg; read-out: CLz/F
From the text: To explore the pharmacokinetic properties of YCHD following intragastric administration in rats, a rapid and sensitive method involving the use of UHPLC-MS/MS (Agilent 6460 series, Agilent Technologies, Santa Clara, CA, United States) was developed and validated for the simultaneous quantification of 10 active components of rat plasma. […]
Enter your answer as a number in mL/min/kg; do not include the unit.

Documented CL/F of `O=C(/C=C/c1ccc(O)c(O)c1)O[C@@H]1C[C@](O)(C(=O)O)C[C@@H](O)[C@H]1O` : 1360

Documented CL/F of COC(=O)C1=CO[C@@H](O[C@@H]2O[C@H](CO[C@@H]3O[C@H](CO)[C@@H](O)[C@H](O)[C@H]3O)[C@@H](O)[C@H](O)[C@H]2O)[C@@H]2C(CO)=CC[C@H]12 [genipin-1-β-D-gentiobiodide, Genipin-1-β-D-gentiobiodide] : 1260

Documented CL/F of CC(=O)c1ccc(O)cc1 [4-hydroxyacetophenone, 4-Hydroxyacetophenone] : 215

Documented CL/F of `O=C(O)c1cc(O)c2c(c1)C(=O)c1cccc(O)c1C2=O` : 221

====

Test: Pharmacokinetic study of YCHD components and phase II metabolites in normal rats (UHPLC-MS/MS, sulfatase enzymolysis)
Assay type: in vivo, rat
Settings: rat; Control group (normal rats), single oral YCHD 12 g/kg, plasma; read-out: t1/2z
Reported half-life is given for each of the following compounds.
Enter your answer as a number in h; do not include the unit.

Examples with their reported half-life follow.
compound	reading unit	half-life
CC(=O)c1ccc(O)cc1 [4-hydroxyacetophenone, 4-Hydroxyacetophenone]	h	13.8
O=C(O)/C=C/c1ccc(O)c(O)c1 [Caffeic acid]	h	0.938

Documented half-life of O=C(O)c1cc(O)c2c(c1)C(=O)c1cccc(O)c1C2=O [Rhein] : 1.06

====

Experiment: Pharmacokinetic study of YCHD components and phase II metabolites in normal rats (UHPLC-MS/MS, sulfatase enzymolysis)
Type: in vivo, rat
Conditions: Sprague Dawley, rat, plasma, po, 12 g/kg, Control group (normal rats), single oral YCHD 12 g/kg, plasma
measure: Tmax

Documented Tmax of O=C(O)/C=C/c1ccc(O)c(O)c1 [Caffeic acid] : 15 min

====

Test: Pharmacokinetic study of YCHD components and phase II metabolites in normal rats (UHPLC-MS/MS, sulfatase enzymolysis)
Assay type: in vivo, rat
Conditions: rat; Control group (normal rats), single oral YCHD 12 g/kg, plasma; read-out: MRT (0-∞) (converted)
measure: MRT inf (h)
Enter your answer as a number in h; do not include the unit.

molecule	reading unit	MRT inf
CC(=O)c1ccc(O)cc1 [4-hydroxyacetophenone, 4-Hydroxyacetophenone]	h	4.82
COC(=O)C1=CO[C@@H](O[C@@H]2O[C@H](CO[C@@H]3O[C@H](CO)[C@@H](O)[C@H](O)[C@H]3O)[C@@H](O)[C@H](O)[C@H]2O)[C@@H]2C(CO)=CC[C@H]12 [genipin-1-β-D-gentiobiodide, Genipin-1-β-D-gentiobiodide]	h	2.13
O=C(O)C1=CO[C@@H](O[C@@H]2O[C@H](CO)[C@@H](O)[C@H](O)[C@H]2O)[C@@H]2C(CO)=CC[C@H]12	h	5.93

We now examine a further molecule.
Documented MRT inf of `O=C(O)c1cc(O)c2c(c1)C(=O)c1cccc(O)c1C2=O` : 2.01

====

Assay: Pharmacokinetic study of YCHD components and phase II metabolites in normal rats (UHPLC-MS/MS, sulfatase enzymolysis)
Assay type: in vivo, rat
Details: Sprague Dawley, rat; Control group (normal rats), single oral YCHD 12 g/kg, plasma
measure: Cmax (ng/mL)
Enter your answer as a number in ng/mL; do not include the unit.

Documented Cmax of `O=C(O)/C=C/c1ccc(O)c(O)c1` : 286

====

Assay: Pharmacokinetic study of YCHD components and phase II metabolites in normal rats (UHPLC-MS/MS, sulfatase enzymolysis)
Format: in vivo, rat
Details: rat; Control group (normal rats), single oral YCHD 12 g/kg, plasma; read-out: CLz/F
Reported CL/F is given for each of the following compounds.
Enter your answer as a number in mL/min/kg; do not include the unit.

Documented CL/F of O=C(/C=C/c1ccc(O)c(O)c1)O[C@@H]1C[C@](O)(C(=O)O)C[C@@H](O)[C@H]1O [Chlorogenic acid] : 1480

Documented CL/F of O=C(O)c1cc(O)c2c(c1)C(=O)c1cccc(O)c1C2=O [Rhein] : 41

Documented CL/F of O=C(O)C1=CO[C@@H](O[C@@H]2O[C@H](CO)[C@@H](O)[C@H](O)[C@H]2O)[C@@H]2C(CO)=CC[C@H]12 [Geniposidic acid] : 30

Documented CL/F of COC(=O)C1=CO[C@@H](O[C@@H]2O[C@H](CO[C@@H]3O[C@H](CO)[C@@H](O)[C@H](O)[C@H]3O)[C@@H](O)[C@H](O)[C@H]2O)[C@@H]2C(CO)=CC[C@H]12 [genipin-1-β-D-gentiobiodide, Genipin-1-β-D-gentiobiodide] : 1040
